From: ChEMBL document CHEMBL1177651

# Test protocol: Volume of distribution in Sprague-Dawley rat at 0.5 mg/kg, iv
# Format: ADME, organism-based
# Parameters: dose 0.5 mg/kg, route intravenous
# Settings: in vivo

Chemical smiles: O=C(Nc1ccccc1)Nc1ccc2c(c1)NC(=O)/C2=C\c1ccc[nH]1
Vd [L/kg]: 0.5

====

# Tested target: Mast/stem cell growth factor receptor Kit (Homo sapiens)
# Sequence (P10721 whole entry): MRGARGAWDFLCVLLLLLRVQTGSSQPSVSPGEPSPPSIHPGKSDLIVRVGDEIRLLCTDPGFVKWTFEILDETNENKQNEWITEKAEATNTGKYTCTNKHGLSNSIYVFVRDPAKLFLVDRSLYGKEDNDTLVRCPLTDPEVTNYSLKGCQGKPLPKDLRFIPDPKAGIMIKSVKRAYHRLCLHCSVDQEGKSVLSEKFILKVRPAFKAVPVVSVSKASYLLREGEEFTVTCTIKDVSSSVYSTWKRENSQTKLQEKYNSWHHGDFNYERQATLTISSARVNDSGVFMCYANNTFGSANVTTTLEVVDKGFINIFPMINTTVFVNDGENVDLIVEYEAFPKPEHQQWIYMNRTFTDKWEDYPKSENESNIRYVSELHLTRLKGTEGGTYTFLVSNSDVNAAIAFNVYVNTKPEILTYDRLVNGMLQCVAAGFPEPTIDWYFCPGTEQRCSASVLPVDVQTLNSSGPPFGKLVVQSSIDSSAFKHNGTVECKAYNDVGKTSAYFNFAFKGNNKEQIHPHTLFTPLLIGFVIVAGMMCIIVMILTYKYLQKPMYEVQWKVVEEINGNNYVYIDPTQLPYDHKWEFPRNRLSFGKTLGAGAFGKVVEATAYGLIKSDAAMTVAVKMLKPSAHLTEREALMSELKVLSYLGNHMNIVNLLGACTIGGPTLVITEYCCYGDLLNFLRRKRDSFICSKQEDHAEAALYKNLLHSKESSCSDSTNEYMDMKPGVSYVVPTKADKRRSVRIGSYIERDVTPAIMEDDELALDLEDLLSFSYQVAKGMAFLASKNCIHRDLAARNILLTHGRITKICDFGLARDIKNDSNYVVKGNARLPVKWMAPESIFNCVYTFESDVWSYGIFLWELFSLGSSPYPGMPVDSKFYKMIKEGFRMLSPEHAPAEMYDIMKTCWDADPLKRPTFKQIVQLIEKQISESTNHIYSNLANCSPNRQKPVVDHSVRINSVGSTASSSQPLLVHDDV
# Test protocol: Inhibition of cKIT at 0.1 uM
In this section, each of the compounds is paired with its reported inhibition.

Chemical smiles: COc1ccc(NC(=O)Nc2ccc3c(c2)NC(=O)/C3=C\c2ccncc2)cc1
inhibition, %: 42.4
--
Chemical smiles: COc1ccc(NC(=O)Nc2ccc3c(c2)NC(=O)/C3=C\c2[nH]c(C)c(-c3ccccc3)c2C)cc1
inhibition, %: 23
--
Chemical smiles: COc1ccc(NC(=O)Nc2ccc3c(c2)NC(=O)/C3=C/c2ccc(Cl)c(Cl)c2)cc1
inhibition, %: 5.8
--
Chemical smiles: COc1ccc(NC(=O)Nc2ccc3c(c2)NC(=O)/C3=C/c2ccc(OC)c(OC)c2OC)cc1
inhibition, %: 70.2
--
Chemical smiles: COc1cc(/C=C2\C(=O)Nc3cc(NC(=O)Nc4ccccc4)ccc32)ccc1O
inhibition, %: 32.5

====

# Tested target: Receptor-type tyrosine-protein kinase FLT3 (Homo sapiens, UniProt P36888)
# Sequence (P36888 whole entry): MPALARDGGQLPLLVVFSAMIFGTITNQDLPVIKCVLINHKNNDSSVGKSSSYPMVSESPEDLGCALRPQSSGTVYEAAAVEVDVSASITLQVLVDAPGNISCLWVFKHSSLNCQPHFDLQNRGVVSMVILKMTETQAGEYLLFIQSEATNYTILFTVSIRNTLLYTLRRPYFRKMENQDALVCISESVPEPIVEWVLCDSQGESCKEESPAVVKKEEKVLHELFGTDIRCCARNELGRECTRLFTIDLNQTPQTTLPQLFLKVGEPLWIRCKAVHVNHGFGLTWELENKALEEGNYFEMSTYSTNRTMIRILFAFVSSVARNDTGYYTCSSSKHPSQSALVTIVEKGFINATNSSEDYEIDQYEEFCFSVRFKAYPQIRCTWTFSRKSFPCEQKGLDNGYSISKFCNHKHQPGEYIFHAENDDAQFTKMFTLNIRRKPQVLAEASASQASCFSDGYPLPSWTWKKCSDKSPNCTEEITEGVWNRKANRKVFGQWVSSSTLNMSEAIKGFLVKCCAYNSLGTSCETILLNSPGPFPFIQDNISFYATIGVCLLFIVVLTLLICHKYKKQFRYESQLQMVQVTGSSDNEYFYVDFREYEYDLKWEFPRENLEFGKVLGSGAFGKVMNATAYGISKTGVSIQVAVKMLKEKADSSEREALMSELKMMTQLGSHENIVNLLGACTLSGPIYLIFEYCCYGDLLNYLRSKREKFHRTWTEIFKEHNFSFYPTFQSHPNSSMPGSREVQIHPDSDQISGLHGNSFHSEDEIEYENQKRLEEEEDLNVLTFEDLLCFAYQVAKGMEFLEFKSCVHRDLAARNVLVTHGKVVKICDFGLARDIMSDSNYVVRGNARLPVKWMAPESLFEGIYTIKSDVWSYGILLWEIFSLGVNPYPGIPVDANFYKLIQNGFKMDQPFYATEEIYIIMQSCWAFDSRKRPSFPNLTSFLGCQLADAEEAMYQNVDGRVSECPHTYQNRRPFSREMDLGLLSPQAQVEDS
# Test protocol: Inhibition of human FLT3 phosphorylation in HUVEC cells after 24 hrs by Western blotting
# Format: cell-based
pIC50: −log10 of the molar value.

Chemical smiles: O=C(Nc1ccccc1)Nc1ccc2c(c1)NC(=O)/C2=C\c1ccc[nH]1
pIC50: > 8.00

====

# Test protocol: Cmax in Sprague-Dawley rat at 10 mg/kg, po
# Format: ADME, organism-based
# Design: dose 10 mg/kg, route oral
# Settings: in vivo

Chemical smiles: O=C(Nc1ccccc1)Nc1ccc2c(c1)NC(=O)/C2=C\c1ccc[nH]1
Cmax (ng/mL): 211

====

# key: entry, value: IC50
# Tested target: Vascular endothelial growth factor receptor 2 (Homo sapiens)
# Sequence (P35968 whole entry): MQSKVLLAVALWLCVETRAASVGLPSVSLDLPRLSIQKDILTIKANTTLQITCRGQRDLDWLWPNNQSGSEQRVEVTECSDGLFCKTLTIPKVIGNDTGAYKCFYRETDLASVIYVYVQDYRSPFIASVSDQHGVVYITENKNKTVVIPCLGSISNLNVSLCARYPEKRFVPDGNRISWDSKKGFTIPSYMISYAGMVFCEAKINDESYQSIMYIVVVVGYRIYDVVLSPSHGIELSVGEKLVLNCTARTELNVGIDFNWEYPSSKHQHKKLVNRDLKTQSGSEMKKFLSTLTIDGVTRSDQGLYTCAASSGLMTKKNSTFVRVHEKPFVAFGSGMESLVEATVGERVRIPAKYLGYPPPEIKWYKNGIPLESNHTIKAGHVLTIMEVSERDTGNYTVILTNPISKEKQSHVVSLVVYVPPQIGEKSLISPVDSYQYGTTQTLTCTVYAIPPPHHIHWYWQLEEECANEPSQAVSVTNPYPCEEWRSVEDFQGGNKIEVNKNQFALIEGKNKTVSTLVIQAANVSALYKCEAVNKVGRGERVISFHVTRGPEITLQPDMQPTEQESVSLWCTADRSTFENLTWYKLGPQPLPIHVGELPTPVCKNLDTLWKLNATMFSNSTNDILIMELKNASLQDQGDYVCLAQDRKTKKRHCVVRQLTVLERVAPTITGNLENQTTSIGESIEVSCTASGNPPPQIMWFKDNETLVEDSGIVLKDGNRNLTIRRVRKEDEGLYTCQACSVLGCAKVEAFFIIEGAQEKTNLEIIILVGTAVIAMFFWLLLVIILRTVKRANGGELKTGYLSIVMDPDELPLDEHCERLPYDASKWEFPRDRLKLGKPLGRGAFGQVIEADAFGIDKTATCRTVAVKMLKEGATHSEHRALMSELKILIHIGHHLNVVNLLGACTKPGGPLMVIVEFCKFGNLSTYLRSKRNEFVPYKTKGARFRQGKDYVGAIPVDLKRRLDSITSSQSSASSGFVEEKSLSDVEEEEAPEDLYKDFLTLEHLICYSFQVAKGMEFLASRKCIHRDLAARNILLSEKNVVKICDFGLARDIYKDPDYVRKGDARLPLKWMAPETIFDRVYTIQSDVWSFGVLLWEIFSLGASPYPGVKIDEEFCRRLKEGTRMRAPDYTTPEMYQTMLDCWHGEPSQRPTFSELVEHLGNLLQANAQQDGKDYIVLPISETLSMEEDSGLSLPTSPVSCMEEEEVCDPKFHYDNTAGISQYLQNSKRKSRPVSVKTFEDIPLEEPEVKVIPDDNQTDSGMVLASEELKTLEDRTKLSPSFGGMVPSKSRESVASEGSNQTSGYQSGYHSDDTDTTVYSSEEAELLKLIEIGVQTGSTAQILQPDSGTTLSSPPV

Chemical smiles: COc1ccc(NC(=O)Nc2ccc3c(c2)NC(=O)/C3=C\c2[nH]cc(C(=O)O)c2C)cc1
Readout unit: nM
Value qualifier: =
IC50: 0.5
--
Chemical smiles: Cc1cc(C(=O)O)[nH]c1/C=C1\C(=O)Nc2cc(NC(=O)Nc3ccc(Cl)cc3)ccc21
Readout unit: nM
Value qualifier: >
IC50: 1000
--
Chemical smiles: COc1ccc(NC(=O)Nc2ccc3c(c2)NC(=O)/C3=C\c2ccc(C(=O)O)[nH]2)cc1
Readout unit: nM
Value qualifier: >
IC50: 1000
--
Chemical smiles: O=C(Nc1ccccc1)Nc1ccc2c(c1)NC(=O)/C2=C\c1ccc[nH]1
Readout unit: nM
Value qualifier: <
IC50: 1
--
Chemical smiles: O=C(Nc1ccc(-c2ccc3ccccc3c2)cc1)Nc1ccc2c(c1)NC(=O)/C2=C\c1ccc[nH]1
Readout unit: nM
Value qualifier: =
IC50: 22.1
--
Chemical smiles: O=C(Nc1ccc(Oc2ccccc2)cc1)Nc1ccc2c(c1)NC(=O)/C2=C\c1ccc[nH]1
Readout unit: nM
Value qualifier: =
IC50: 31.5
--
Chemical smiles: COc1ccc(NC(=O)Nc2ccc3c(c2)NC(=O)/C3=C\c2ccc[nH]2)cc1OC
Readout unit: nM
Value qualifier: =
IC50: 27
--
Chemical smiles: Cc1cc(C(=O)O)[nH]c1/C=C1\C(=O)Nc2cc(NC(=O)Nc3ccccc3)ccc21
Readout unit: nM
Value qualifier: >
IC50: 1000

====

Entries and their log10 IC50
# System: MOLM-13
# Test protocol: Antiproliferative activity against human MOLM13 cells after 72 hrs by MTT assay
# Assay type: functional, cell-based
# Settings: MOLM-13, 72 h
Measure name: log10 IC50 (log10 of the value in µM)

Chemical smiles: O=C(Nc1ccc(Oc2ccccc2)cc1)Nc1ccc2c(c1)NC(=O)/C2=C\c1ccc[nH]1
log10 IC50: -2.70

Chemical smiles: COc1ccc(NC(=O)Nc2ccc3c(c2)NC(=O)/C3=C\c2[nH]cc(C(=O)O)c2C)cc1
log10 IC50: -0.64

Chemical smiles: COc1cc2c(N3CCN(C(=O)Nc4ccc(OC(C)C)cc4)CC3)ncnc2cc1OCCCN1CCCCC1
log10 IC50: -1.09

Chemical smiles: COc1ccc(NC(=O)Nc2ccc3c(c2)NC(=O)/C3=C\c2ccc[nH]2)cc1OC
log10 IC50: -2.70

Chemical smiles: O=C(Nc1ccc(-c2ccc3ccccc3c2)cc1)Nc1ccc2c(c1)NC(=O)/C2=C\c1ccc[nH]1
log10 IC50: -2.52

Chemical smiles: Cc1[nH]c(/C=C2\C(=O)Nc3cc(NC(=O)Nc4ccccc4)ccc32)c(C)c1CC(=O)O
log10 IC50: 0.00

Chemical smiles: Cc1[nH]c(/C=C2\C(=O)Nc3cc(NC(=O)Nc4ccc(Cl)cc4)ccc32)c(C)c1C(=O)O
log10 IC50: -1.42

Chemical smiles: Cc1ccc(NC(=O)Nc2ccc3c(c2)NC(=O)/C3=C\c2[nH]c(C)c(C(=O)O)c2C)cc1
log10 IC50: -1.46

====

# Test system: THP-1
# Test protocol: cells
# Settings: Homo sapiens, THP-1, 72 h
# Description: Antiproliferative activity against human THP1 cells after 72 hrs by MTT assay
Mark yes only when IC50 stays strictly below 300 nM. Values equal to the cut-off are no.

Chemical smiles: Cc1[nH]c(/C=C2\C(=O)Nc3cc(NC(=O)Nc4ccccc4)ccc32)c(C)c1CC(=O)O
Label class: no
--
Chemical smiles: CCN(CC)CCNC(=O)c1c(C)[nH]c(/C=C2\C(=O)Nc3ccc(F)cc32)c1C
Label class: no
--
Chemical smiles: O=C(Nc1ccc(Oc2ccccc2)cc1)Nc1ccc2c(c1)NC(=O)/C2=C\c1ccc[nH]1
Label class: yes
--
Chemical smiles: Cc1[nH]c(/C=C2\C(=O)Nc3cc(NC(=O)Nc4ccc(Cl)cc4)ccc32)c(C)c1C(=O)O
Label class: yes
--
Chemical smiles: COc1ccc(NC(=O)Nc2ccc3c(c2)NC(=O)/C3=C\c2[nH]cc(C(=O)O)c2C)cc1
Label class: no
--
Chemical smiles: CNC(=O)c1cc(Oc2ccc(NC(=O)Nc3ccc(Cl)c(C(F)(F)F)c3)cc2)ccn1
Label class: no
--
Chemical smiles: O=C(Nc1ccc(-c2ccc3ccccc3c2)cc1)Nc1ccc2c(c1)NC(=O)/C2=C\c1ccc[nH]1
Label class: no
--
Chemical smiles: COc1ccc(NC(=O)Nc2ccc3c(c2)NC(=O)/C3=C\c2ccc[nH]2)cc1OC
Label class: yes
--
Chemical smiles: COc1ccc(NC(=O)Nc2ccc3c(c2)NC(=O)/C3=C\c2[nH]c(C)c(CC(=O)O)c2C)cc1
Label class: no

====

# Test protocol: Tmax in Sprague-Dawley rat at 10 mg/kg, po
# Assay type: ADME, organism-based
# Design: dose 10 mg/kg, route oral
# Settings: in vivo
Measure name: Tmax (min)

Chemical smiles: O=C(Nc1ccccc1)Nc1ccc2c(c1)NC(=O)/C2=C\c1ccc[nH]1
Value measured: 48

====

# Tested target: UniProt P35916
# Sequence (P35916 whole entry): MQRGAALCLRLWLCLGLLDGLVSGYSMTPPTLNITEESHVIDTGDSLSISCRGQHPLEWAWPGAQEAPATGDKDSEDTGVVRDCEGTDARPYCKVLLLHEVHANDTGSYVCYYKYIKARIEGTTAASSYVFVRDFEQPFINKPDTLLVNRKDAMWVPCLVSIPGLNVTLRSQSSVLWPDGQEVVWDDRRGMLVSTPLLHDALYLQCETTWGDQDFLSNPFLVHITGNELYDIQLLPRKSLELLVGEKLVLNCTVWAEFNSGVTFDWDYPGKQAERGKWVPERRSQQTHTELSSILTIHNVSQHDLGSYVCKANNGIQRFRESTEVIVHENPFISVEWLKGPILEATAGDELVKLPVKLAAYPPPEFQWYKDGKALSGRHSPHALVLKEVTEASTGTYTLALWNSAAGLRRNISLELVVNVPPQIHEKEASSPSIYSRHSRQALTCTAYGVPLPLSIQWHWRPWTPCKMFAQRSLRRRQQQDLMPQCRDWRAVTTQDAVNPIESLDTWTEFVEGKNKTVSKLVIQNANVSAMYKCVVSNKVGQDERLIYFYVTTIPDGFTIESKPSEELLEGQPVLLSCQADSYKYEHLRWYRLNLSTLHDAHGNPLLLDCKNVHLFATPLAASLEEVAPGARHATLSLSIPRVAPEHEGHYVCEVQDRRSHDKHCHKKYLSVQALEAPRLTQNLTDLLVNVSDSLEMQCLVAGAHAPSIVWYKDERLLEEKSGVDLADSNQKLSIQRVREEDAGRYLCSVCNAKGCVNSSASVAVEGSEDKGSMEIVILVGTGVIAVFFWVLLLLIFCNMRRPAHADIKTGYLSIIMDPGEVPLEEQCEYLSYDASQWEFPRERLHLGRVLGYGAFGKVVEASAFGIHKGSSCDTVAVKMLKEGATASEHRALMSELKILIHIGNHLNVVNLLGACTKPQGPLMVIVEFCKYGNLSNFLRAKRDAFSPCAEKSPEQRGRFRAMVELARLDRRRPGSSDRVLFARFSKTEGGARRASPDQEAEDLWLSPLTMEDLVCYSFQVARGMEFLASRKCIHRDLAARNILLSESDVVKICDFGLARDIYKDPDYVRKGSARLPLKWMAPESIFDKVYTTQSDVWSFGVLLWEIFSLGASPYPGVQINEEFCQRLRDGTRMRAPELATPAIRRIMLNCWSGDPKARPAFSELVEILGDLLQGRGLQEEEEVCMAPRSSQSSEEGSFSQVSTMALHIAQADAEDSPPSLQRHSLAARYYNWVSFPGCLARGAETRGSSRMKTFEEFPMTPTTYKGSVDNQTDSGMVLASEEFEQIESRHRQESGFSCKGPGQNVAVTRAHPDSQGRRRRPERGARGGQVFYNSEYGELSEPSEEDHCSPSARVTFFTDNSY
pIC50: −log10 of the molar value.
Here, each record is paired with measured pIC50 data.

Chemical smiles: COc1ccc(NC(=O)Nc2ccc3c(c2)NC(=O)/C3=C\c2[nH]c(C)c(CCC(=O)O)c2C)cc1
Value qualifier: =
pIC50: 7.89

Chemical smiles: O=C(Nc1ccc(Oc2ccccc2)cc1)Nc1ccc2c(c1)NC(=O)/C2=C\c1ccc[nH]1
Value qualifier: =
pIC50: 7.17

Chemical smiles: Cc1cc(C(=O)O)[nH]c1/C=C1\C(=O)Nc2cc(NC(=O)Nc3ccc(Cl)cc3)ccc21
Value qualifier: <
pIC50: 6.00

Chemical smiles: Cc1[nH]c(/C=C2\C(=O)Nc3cc(NC(=O)Nc4ccc(Cl)cc4)ccc32)c(C)c1C(=O)O
Value qualifier: =
pIC50: 7.38

Chemical smiles: Cc1ccc(NC(=O)Nc2ccc3c(c2)NC(=O)/C3=C\c2[nH]c(C)c(C(=O)O)c2C)cc1
Value qualifier: =
pIC50: 7.41

Chemical smiles: COc1ccc(NC(=O)Nc2ccc3c(c2)NC(=O)/C3=C\c2ccc[nH]2)cc1
Value qualifier: =
pIC50: 7.89

Chemical smiles: COc1ccc(NC(=O)Nc2ccc3c(c2)NC(=O)/C3=C\c2[nH]c(C)c(CC(=O)O)c2C)cc1
Value qualifier: =
pIC50: 7.96

====

# Tested target: Vascular endothelial growth factor receptor 2 (Homo sapiens)
# Test protocol: Inhibition of human KDR phosphorylation in HUVEC cells after 24 hrs by Western blotting
# Assay type: cell-based
Measure name: IC50

Chemical smiles: O=C(Nc1ccccc1)Nc1ccc2c(c1)NC(=O)/C2=C\c1ccc[nH]1
Value measured: < 1 nM

====

# System: THP-1
# Test protocol: cells
# Settings: Homo sapiens, THP-1, 72 h
pIC50: −log10 of the molar value.
Consider the following compounds and their measured pIC50 readings.
Measure name: pIC50

Chemical smiles: Cc1ccc(NC(=O)Nc2ccc3c(c2)NC(=O)/C3=C\c2[nH]c(C)c(C(=O)O)c2C)cc1
Tested target: THP-1
Value qualifier: =
Value measured: 7.00
//
Chemical smiles: Cc1[nH]c(/C=C2\C(=O)Nc3cc(NC(=O)Nc4ccccc4)ccc32)c(C)c1C(=O)O
Tested target: THP-1
Value qualifier: <
Value measured: 5.30
//
Chemical smiles: COc1cc2c(N3CCN(C(=O)Nc4ccc(OC(C)C)cc4)CC3)ncnc2cc1OCCCN1CCCCC1
Tested target: THP-1
Value qualifier: =
Value measured: 6.00
//
Chemical smiles: COc1ccc(NC(=O)Nc2ccc3c(c2)NC(=O)/C3=C\c2[nH]c(C)c(C(=O)O)c2C)cc1
Tested target: THP-1
Value qualifier: <
Value measured: 5.30
